assay: in vivo pharmacokinetics in male ICR mice, IV and PO; design: species or system mouse (male ICR mice); conditions: plasma, 2 mg/kg; mouse; PO 2 mpk, IV 1 mpk
reported_property: bioavailability

1) Cc1nc(N)ncc1-c1cc2nc(-c3ccc(C(F)(F)F)cc3)[nH]c2c(F)c1F | 76%
2) Nc1cc(Cl)c(-c2cc3[nH]c(-c4ccc(C(F)(F)F)cc4)nc3cc2F)cn1 | 83%

---

# Lookup of reported pIC50 keyed by entry
Target: soluble epoxide hydrolase (sEH) (Homo sapiens)
Sequence (P34913 whole entry): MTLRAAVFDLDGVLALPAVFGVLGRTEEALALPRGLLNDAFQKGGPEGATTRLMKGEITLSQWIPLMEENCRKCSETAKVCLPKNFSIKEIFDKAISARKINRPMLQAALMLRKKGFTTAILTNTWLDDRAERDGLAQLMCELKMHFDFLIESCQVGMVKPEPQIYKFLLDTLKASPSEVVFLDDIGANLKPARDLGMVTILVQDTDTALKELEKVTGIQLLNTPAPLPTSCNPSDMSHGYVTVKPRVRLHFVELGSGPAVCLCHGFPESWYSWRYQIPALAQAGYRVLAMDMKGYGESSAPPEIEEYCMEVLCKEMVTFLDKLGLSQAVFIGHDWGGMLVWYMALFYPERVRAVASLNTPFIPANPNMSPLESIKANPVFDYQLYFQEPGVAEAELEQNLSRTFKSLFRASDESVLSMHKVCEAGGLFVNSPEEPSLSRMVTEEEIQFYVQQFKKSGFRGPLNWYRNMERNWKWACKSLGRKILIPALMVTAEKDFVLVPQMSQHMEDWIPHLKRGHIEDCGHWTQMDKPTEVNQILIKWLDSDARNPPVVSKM
Test: in vitro biochemical activity test, sEH enzyme inhibition with EET substrate (LC-MS)
Conditions: 90 min pre-incubation at room temperature, 60 min reaction
Description: This example relates to the relationship between the structure and activity of (hetero)aryl imidazole compounds containing an aromatic substituent. Specifically, the biochemical activity of the (hetero)aryl imidazole compounds containing an aromatic substituent described in Example 1 as sEH enzyme inhibitors was evaluated by in vitro activity test experiments. The experimental procedures for evaluating in vitro biochemical activity were described below. […]
pIC50: −log10 of the molar value.
reported_property: pIC50

1. CN(C)S(=O)(=O)c1ccc(-c2nc3cc(-c4ccnn4C(C)(C)F)c(F)cc3[nH]2)cc1 [Compound 38] | 10.35
2. Cc1cc(N)ncc1-c1cc2[nH]c(-c3ccc(S(=O)(=O)N(C)C)cc3)nc2c(F)c1F [Compound 45] | 10.48
3. CC(C)n1nccc1-c1cc2nc(-c3ccc(S(=O)(=O)N(C)C)cc3)[nH]c2cc1F [Compound 21] | 10.29
4. Cc1ccc(-c2cc3nc(-c4ccc(C(=O)N5CCC[C@@H](C(N)=O)C5)cc4)[nH]c3cc2F)c(Cl)n1 [Compound 3] | 8.12
5. Cc1nc(N)ncc1-c1cc2[nH]c(-c3ccc(C(F)(F)F)cc3)nc2cc1F [Compound 42] | 9.85
6. Cc1ccc(-c2cc3nc(-c4ccc(C(F)(F)F)cc4)[nH]c3cc2F)c(Cl)n1 [Compound 12] | 10.24
7. CC(C)c1ncncc1-c1cc2[nH]c(-c3ccc(S(=O)(=O)N(C)C)cc3)nc2cc1F [Compound 47] | 10.44
8. Fc1c(-c2ccnn2C2CC2)cc2[nH]c(-c3ccc(C(F)(F)F)cc3)nc2c1F [Compound 75] | 10.09
